# Test system: COLO 205
# protocol-description: Cytotoxicity against human Colo205 cells by sulforhodamine B assay
# Type: functional, cell-based
Property: IC50; scope: individual compounds

smiles-repr: COc1cc2c(cc1OCCCCOc1ccc(OCCCCOc3cc4c(cc3OC)C(=O)N3CCC[C@H]3C=N4)c3c1C(=O)c1ccccc1C3=O)N=C[C@@H]1CCCN1C2=O
assayed-system: COLO 205
unit-spec: nM
qualifier: =
IC50: 10000
--
smiles-repr: COc1cccc2c1C(=O)c1c(O)c3c(c(O)c1C2=O)C[C@@](O)(C(=O)CO)C[C@@H]3O[C@H]1C[C@H](N)[C@H](O)[C@H](C)O1
assayed-system: COLO 205
unit-spec: nM
qualifier: =
IC50: 2000
--
smiles-repr: COc1cc2c(cc1OCCCCCOc1ccc(OCCCCCOc3cc4c(cc3OC)C(=O)N3CCC[C@H]3C=N4)c3c1C(=O)c1ccccc1C3=O)N=C[C@@H]1CCCN1C2=O
assayed-system: COLO 205
unit-spec: nM
qualifier: <
IC50: 1000
--
smiles-repr: COc1cc2c(cc1OCCCOc1ccc(OCCCOc3cc4c(cc3OC)C(=O)N3CCC[C@H]3C=N4)c3c1C(=O)c1ccccc1C3=O)N=C[C@@H]1CCCN1C2=O
assayed-system: COLO 205
unit-spec: nM
qualifier: <
IC50: 1000
--
smiles-repr: COc1cc2c(cc1OCCCCC(=O)Nc1cccc3c1C(=O)c1ccccc1C3=O)N=C[C@@H]1CCCN1C2=O
assayed-system: COLO 205
unit-spec: nM
qualifier: <
IC50: 1000
--
smiles-repr: COc1cc2c(cc1OCCCC(=O)Nc1cccc3c1C(=O)c1ccccc1C3=O)N=C[C@@H]1CCCN1C2=O
assayed-system: COLO 205
unit-spec: nM
qualifier: =
IC50: 1800
